- experiment_summary: qHTS assay to identify small molecule agonists of the estrogen receptor alpha (ER-alpha) signaling pathway in the presence of an antagonist - cell viability counter screen (AID 1259386);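 further: cells exposed to compounds for 22 h at 37 °C before the viability read; nearly all actives have a fitted effect of over 30% in size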; further: potency means the concentration at half of the fitted maximal effect
- reported_conditions: VM7Luc4E2 viability, CellTiter-Fluor fluorescence, 22 h; series mostly up to 92.4 µM
Records with an inconclusive call do not appear. Activity calls are given as the source filed them. The call rests on the fitted dose curve; in most records, active means well fitted cell-killing curve with a large enough effect in the repeat runs; inconclusive means weak or mixed curves, or effect the other way; inactive means no such curve, though single readings can be large or run the other way.
property: Potency

# mol_smiles, recorded_value
rows = [
    ("CCCN(CCC)c1c([N+](=O)[O-])cc(C(F)(F)F)c(N)c1[N+](=O)[O-]", "60.9 µM (active)"),
    ("S=c1[nH]c2ccccc2s1", "inactive"),
    ("O=CC=C(c1ccccc1)c1ccccc1", "inactive"),
    ("CCCCCCCCCCCCCCCC(=O)OC[C@H](O)[C@H]1OC(=O)C(O)=C1O", "inactive"),
    ("COc1cccc(N)c1", "inactive"),
    ("O=C(OC[C@H]1O[C@@H](OC(=O)c2cc(O)c(O)c(OC(=O)c3cc(O)c(O)c(O)c3)c2)[C@H](OC(=O)c2cc(O)c(O)c(OC(=O)c3cc(O)c(O)c(O)c3)c2)[C@@H](OC(=O)c2cc(O)c(O)c(OC(=O)c3cc(O)c(O)c(O)c3)c2)[C@@H]1OC(=O)c1cc(O)c(O)c(OC(=O)c2cc(O)c(O)c(O)c2)c1)c1cc(O)c(O)c(OC(=O)c2cc(O)c(O)c(O)c2)c1", "18.5 µM (active)"),
    ("Cc1cc(O)c2ccccc2c1O", "29.8 µM (active)"),
    ("C/C=C(\\C)C(=O)OCc1ccccc1", "inactive"),
    ("CCCCc1oc2ccc(NS(C)(=O)=O)cc2c1C(=O)c1ccc(OCCCN(CCCC)CCCC)cc1", "33.5 µM (active)"),
    ("C=CC(=O)OCCn1c(=O)n(CCOC(=O)C=C)c(=O)n(CCOC(=O)C=C)c1=O", "48.6 µM (active)"),
    ("Oc1ccc2c(c1)-c1ccccc1C2", "inactive"),
    ("OCCN1CCN(CC/C=C2/c3ccccc3Sc3ccc(C(F)(F)F)cc32)CC1", "inactive"),
    ("CO[Si](CCCNc1ccccc1)(OC)OC", "inactive"),
    ("CC1=C(/C=C/C(C)=C/C=C/C(C)=C/C=O)C(C)(C)CCC1", "60.8 µM (active)"),
    ("CCCC/C=C/CCCCO", "inactive"),
]

----------
- experiment_summary: qHTS assay to identify aromatase inhibitors - cell viability counter screen (AID 743084);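 further: cells stimulated with testosterone during compound exposure; nearly all actives have a fitted effect of over 55% in size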
- reported_conditions: MCF-7 aro ERE viability, CellTiter-Fluor, 24 h; series mostly up to 70.3 µM
Inconclusive results are not listed. Calls of active or inactive are those of the source. The call rests on the fitted dose curve; in most records, active means well fitted cell-killing curve with a large enough effect in the repeat runs; inconclusive means weak or mixed curves, or effect the other way; inactive means no such curve, though single readings can be large or run the other way.
Labels: active, inactive

# mol_smiles, group_label
rows = [
    ("O=[N+]([O-])c1cc(Cl)c(Cl)c(Cl)c1Cl", "active"),
    ("Cc1onc(-c2c(Cl)cccc2Cl)c1C(=O)N[C@@H]1C(=O)N2[C@@H]1SC(C)(C)[C@@H]2C(=O)O", "inactive"),
    ("CCc1cc(Cc2cc(CC)c(N)c(CC)c2)cc(CC)c1N", "inactive"),
    ("O=C1C=CC(=O)N1c1ccc(Cc2ccc(N3C(=O)C=CC3=O)cc2)cc1", "active"),
]
